- System: Kelly Neuroblastoma cells
- method: ATPlite Luminescence viability assay, Kelly neuroblastoma cells, 72 h
- Format: cell-based
- condition-details: Kelly Neuroblastoma cells, ATPlite, class symbols, read-out: IC50 of inventive bispecific compounds

compound: Cc1noc(C)c1-c1ccc2c(c1)nc(CCc1ccc(NC(=O)CCOCCOCCOCCNc3cccc4c3C(=O)N(C3CCC(=O)NC3=O)C4=O)cc1)n2CCN1CCOCC1 (centres unmarked)
tested-on: Kelly Neuroblastoma cells
IC50: > 10 µM
//
compound: Cc1noc(C)c1-c1ccc2c(c1)nc(CCc1ccc(NCCNC(=O)CCCCCNc3cccc4c3C(=O)N(C3CCC(=O)NC3=O)C4=O)cc1)n2CC(C)N1CCOCC1 (centres unmarked)
tested-on: Kelly Neuroblastoma cells
IC50: > 10 µM
//
compound: Cc1noc(C)c1-c1ccc2c(c1)nc(CCc1ccc(NC(=O)CCCCCNc3cccc4c3C(=O)N(C3CCC(=O)NC3=O)C4=O)cc1)n2CC(C)N1CCOCC1 (centres unmarked)
tested-on: Kelly Neuroblastoma cells
IC50: > 10 µM
//
compound: Cc1noc(C)c1-c1ccn2c(NC3CCCCC3)c(CCc3ccc(NC(=O)COc4cccc5c4C(=O)N(C4CCC(=O)NC4=O)C5=O)cc3)nc2c1 (centres unmarked)
tested-on: Kelly Neuroblastoma cells
IC50: 1 to 10 µM
//
compound: Cc1noc(C)c1-c1ccn2c(NCc3ccccc3)c(-c3ccc(N4CCN(C(=O)CCOCCOCCOCCNc5cccc6c5C(=O)N(C5CCC(=O)NC5=O)C6=O)CC4)cc3)nc2c1 (centres unmarked)
tested-on: Kelly Neuroblastoma cells
IC50: 1 to 10 µM
